target-desc: T1, human Nectin-4 (human, UniProt Q96NY8 32-349)
T1 construct: a Gly32-Ser349 FLAG construct is described only under the SPR assay; also called PVRL4
T1 sequence (looked up): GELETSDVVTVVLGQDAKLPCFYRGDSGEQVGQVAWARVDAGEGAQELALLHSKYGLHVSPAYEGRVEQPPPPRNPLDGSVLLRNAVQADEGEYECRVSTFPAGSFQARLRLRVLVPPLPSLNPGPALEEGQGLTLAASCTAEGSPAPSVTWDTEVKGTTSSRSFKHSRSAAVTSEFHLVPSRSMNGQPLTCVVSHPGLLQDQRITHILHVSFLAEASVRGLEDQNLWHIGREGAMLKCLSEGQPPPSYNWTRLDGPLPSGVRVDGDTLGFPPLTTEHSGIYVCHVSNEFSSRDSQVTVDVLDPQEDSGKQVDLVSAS
assay-explanation: FP competition, tracer SEQ ID NO 217
pKi: −log10 of the molar value. *1 amine or outer side, *2 acyl side, *3 side chain or, on linkers, in order; H or OH if unused. Bridges are numbered along the chain shown (N, C = ends). Where no end group is shown, it is not given here. [ ]: non-standard residue; d: D form. TATA = O=C(CC[*:1])N1CN(C(=O)CC[*:2])CN(C(=O)CC[*:3])C1; Trp(5-F) = N[C@@H](Cc1c[nH]c2ccc(F)cc12)C(=O)O; 1Nal = N[C@@H](Cc1cccc2ccccc12)C(=O)O; 2Nal = N[C@@H](Cc1ccc2ccccc2c1)C(=O)O; Ser(ΨH,HPro) = O=C(O)[C@@H]1COCN1; Hyp = O=C(O)[C@@H]1C[C@@H](O)CN1; hArg = N=C(N)NCCCC[C@H](N)C(=O)O
property-name: pKi

Here's what some known entries look like.
# binder, pKi
data = [
    ("Ac-CPF[dK](MeO‑dPEG12)CM[hArg]NWSTPIWC (linker 1-5-15 via TATA) [BCY8089]", 8.10),
    ("Ac-QKWCAPLSDYWCNAIC (linker 4-12-16 via TATA) [BCY7632]", 6.91),
    ("Ac-CPF[dD]CM[hArg]N[Trp(5-F)]STPIWC (linker 1-5-15 via TATA) [BCY7891]", 8.30),
    ("Ac-CP[2Nal][dR]CM[hArg]DWSTP[Hyp]WC (linker 1-5-15 via TATA) [BCY8186]", 8.22),
    ("ACPFGCMKNWSWP[dA]WCTNK (linker 2-6-16 via TATA) [BCY7365]", 6.55),
    ("ACPFGCMK[dA]WSWPIWCTNK (linker 2-6-16 via TATA) [BCY7360]", 7.17),
]

I: Ac-CP[1Nal][dR]CL[hArg]HWSTP[Hyp]WC (linker 1-5-15 via TATA) [BCY8214]
II: Ac-CPF[dD]CM[hArg]NWST[Ser(ΨH,HPro)]IWC (linker 1-5-15 via TATA) [BCY7884]
INPUT: For the pair I and II , which entry has the numerically smaller recorded pKi? Label of pick, please.
OUTPUT: II
(II: 6.65, I: 8.20)

I: Ac-CP[1Nal][dR]CM[Hyp]DWSTP[Hyp]WC (linker 1-5-15 via TATA) [BCY8194]
II: ACPFGCQEHWSWPIWCTTA (linker 2-6-16 via TATA) [BCY3396]
INPUT: For the pair I and II , which entry has the numerically smaller recorded pKi? Label of pick, please.
OUTPUT: II
